# Study Target: M. tuberculosis Lumazine Synthase (Mycobacterium tuberculosis)
# Format: biochemical
# Measurement Conditions: recombinant M. tuberculosis LS
Readout: Mode of inhibition

Previously resolved entries follow.
Bench note, M. tuberculosis Lumazine Synthase (Mycobacterium tuberculosis): entry O=c1[nH]c(/C=C/c2cc([N+](=O)[O-])ccc2O)c([N+](=O)[O-])c(=O)[nH]1 , its Mode of inhibition = Competitive

Bench note, M. tuberculosis Lumazine Synthase (Mycobacterium tuberculosis): entry O=c1[nH]c(/C=C/c2cc(O)ccc2O)c([N+](=O)[O-])c(=O)[nH]1 , its Mode of inhibition = Uncompetitive

Bench note, M. tuberculosis Lumazine Synthase (Mycobacterium tuberculosis): entry O=c1[nH]c(NCc2ccccc2O)c([N+](=O)[O-])c(=O)[nH]1 , its Mode of inhibition = Uncompetitive

Bench note, M. tuberculosis Lumazine Synthase (Mycobacterium tuberculosis): entry O=c1[nH]c(/C=C/c2ccccc2O)c([N+](=O)[O-])c(=O)[nH]1 , its Mode of inhibition = Competitive

Continuing:
Bench note, M. tuberculosis Lumazine Synthase (Mycobacterium tuberculosis): entry O=C(O)c1ccc(/C=C/c2[nH]c(=O)[nH]c(=O)c2[N+](=O)[O-])c(O)c1 , its Mode of inhibition = Mixed

Bench note, M. tuberculosis Lumazine Synthase (Mycobacterium tuberculosis): entry O=c1[nH]c(/C=C/C2C=Nc3ccccc32)c([N+](=O)[O-])c(=O)[nH]1 (stereo not shown) , its Mode of inhibition = Mixed

Bench note, M. tuberculosis Lumazine Synthase (Mycobacterium tuberculosis): entry COc1ccc(/C=C/c2[nH]c(=O)[nH]c(=O)c2[N+](=O)[O-])cc1OC , its Mode of inhibition = Mixed

Bench note, M. tuberculosis Lumazine Synthase (Mycobacterium tuberculosis): entry O=c1[nH]c(NCc2ccccc2)c([N+](=O)[O-])c(=O)[nH]1 , its Mode of inhibition = Uncompetitive

Bench note, M. tuberculosis Lumazine Synthase (Mycobacterium tuberculosis): entry O=c1[nH]c(/C=C/c2ccc(Br)cc2)c([N+](=O)[O-])c(=O)[nH]1 , its Mode of inhibition = Mixed

Bench note, M. tuberculosis Lumazine Synthase (Mycobacterium tuberculosis): entry O=C(O)c1ccc(/C=C/c2[nH]c(=O)[nH]c(=O)c2[N+](=O)[O-])cc1 , its Mode of inhibition = Partial

Bench note, M. tuberculosis Lumazine Synthase (Mycobacterium tuberculosis): entry O=c1[nH]c(/C=C/c2ccccc2[N+](=O)[O-])c([N+](=O)[O-])c(=O)[nH]1 , its Mode of inhibition = Partial

Bench note, M. tuberculosis Lumazine Synthase (Mycobacterium tuberculosis): entry COc1ccc(/C=C/c2[nH]c(=O)[nH]c(=O)c2[N+](=O)[O-])c(OC)c1OC , its Mode of inhibition = Mixed

Bench note, M. tuberculosis Lumazine Synthase (Mycobacterium tuberculosis): entry O=c1[nH]c(/C=C/c2cccnc2)c([N+](=O)[O-])c(=O)[nH]1 , its Mode of inhibition = Partial

Bench note, M. tuberculosis Lumazine Synthase (Mycobacterium tuberculosis): entry O=c1[nH]c(/C=C/c2ccc([N+](=O)[O-])c(O)c2)c([N+](=O)[O-])c(=O)[nH]1 , its Mode of inhibition = Competitive

Bench note, M. tuberculosis Lumazine Synthase (Mycobacterium tuberculosis): entry COc1ccc([N+](=O)[O-])cc1/C=C/c1[nH]c(=O)[nH]c(=O)c1[N+](=O)[O-] , its Mode of inhibition = Mixed

Bench note, M. tuberculosis Lumazine Synthase (Mycobacterium tuberculosis): entry O=c1[nH]c(/C=C/c2cccc(O)c2O)c([N+](=O)[O-])c(=O)[nH]1 , its Mode of inhibition = Mixed

====

# Study Target: M. tuberculosis Lumazine Synthase (Mycobacterium tuberculosis, UniProt P9WHE9)
# Sequence (P9WHE9 whole entry): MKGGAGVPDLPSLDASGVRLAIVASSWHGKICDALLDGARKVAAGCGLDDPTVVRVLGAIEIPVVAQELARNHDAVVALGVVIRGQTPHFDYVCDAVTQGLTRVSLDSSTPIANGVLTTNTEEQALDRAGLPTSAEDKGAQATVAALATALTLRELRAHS
# Type: biochemical
# Measurement Conditions: recombinant M. tuberculosis LS
Readout: Mode of inhibition

For record COc1cc(/C=C/c2[nH]c(=O)[nH]c(=O)c2[N+](=O)[O-])cc(OC)c1OC [Compound 24] the listed Mode of inhibition is Mixed

For record O=c1[nH]c(/C=C/c2ccc([N+](=O)[O-])cc2)c([N+](=O)[O-])c(=O)[nH]1 [Compound 26] the listed Mode of inhibition is Mixed

For record COc1cccc(/C=C/c2[nH]c(=O)[nH]c(=O)c2[N+](=O)[O-])c1F [Compound 38] the listed Mode of inhibition is Mixed

====

# Study Target: M. tuberculosis Lumazine Synthase (Mycobacterium tuberculosis)
# Type: biochemical
# Measurement Conditions: recombinant M. tuberculosis LS
Readout: Mode of inhibition

For record COc1ccccc1/C=C/c1[nH]c(=O)[nH]c(=O)c1[N+](=O)[O-] the listed Mode of inhibition is Partial

For record O=c1[nH]c(/C=C/c2ccc(Cl)cc2)c([N+](=O)[O-])c(=O)[nH]1 the listed Mode of inhibition is Mixed

For record COc1cccc(/C=C/c2[nH]c(=O)[nH]c(=O)c2[N+](=O)[O-])c1OC the listed Mode of inhibition is Mixed

For record O=c1[nH]c(/C=C/c2ccc[nH]2)c([N+](=O)[O-])c(=O)[nH]1 the listed Mode of inhibition is Partial

For record O=c1[nH]c(/C=C/c2ccc3ccccc3c2)c([N+](=O)[O-])c(=O)[nH]1 the listed Mode of inhibition is Partial

Continuing:
For record O=c1[nH]c(/C=C/c2cccc([N+](=O)[O-])c2)c([N+](=O)[O-])c(=O)[nH]1 the listed Mode of inhibition is Mixed

For record O=c1[nH]c(C=Cc2ccccc2)c([N+](=O)[O-])c(=O)[nH]1 the listed Mode of inhibition is Partial

====

# Study Target: M. tuberculosis Riboflavin Synthase (Mycobacterium tuberculosis)
# Test Details: Riboflavin synthase kinetic inhibition assay
# Format: biochemical
# Measurement Conditions: recombinant M. tuberculosis RS; fit of the compound's data set; pH 7.0
Readout: kcat (rate constant ES → E + P) (s⁻¹)
// units = s⁻¹; emit number, no label

For record O=c1[nH]c(/C=C/c2cccc(O)c2O)c([N+](=O)[O-])c(=O)[nH]1 the listed kcat (rate constant ES → E + P) is 0.0045

For record O=c1[nH]c(/C=C/c2ccccc2O)c([N+](=O)[O-])c(=O)[nH]1 the listed kcat (rate constant ES → E + P) is 0.0683

For record O=c1[nH]c(CCc2ccc(O)cc2)c([N+](=O)[O-])c(=O)[nH]1 the listed kcat (rate constant ES → E + P) is 0.00567

For record O=c1[nH]c(/C=C/c2cc(O)ccc2O)c([N+](=O)[O-])c(=O)[nH]1 the listed kcat (rate constant ES → E + P) is 0.00367

For record O=c1[nH]c(/C=C/c2ccc(F)cc2)c([N+](=O)[O-])c(=O)[nH]1 the listed kcat (rate constant ES → E + P) is 0.00667

// switching to the query compound
For record O=c1[nH]c(/C=C/c2cc([N+](=O)[O-])ccc2O)c([N+](=O)[O-])c(=O)[nH]1 the listed kcat (rate constant ES → E + P) is 0.00783

====

# Study Target: M. tuberculosis Riboflavin Synthase (Mycobacterium tuberculosis, UniProt P9WK35)
# Sequence (P9WK35 whole entry): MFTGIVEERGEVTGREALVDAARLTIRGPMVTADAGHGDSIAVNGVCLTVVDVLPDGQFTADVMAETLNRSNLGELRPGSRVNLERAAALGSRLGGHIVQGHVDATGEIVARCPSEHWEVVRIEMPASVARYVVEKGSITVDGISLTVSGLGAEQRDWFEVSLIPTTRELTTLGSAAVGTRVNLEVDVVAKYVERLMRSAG
# Test Details: Riboflavin synthase kinetic inhibition assay
# Format: biochemical
# Measurement Conditions: recombinant M. tuberculosis RS
Readout: Mode of inhibition

For record O=c1[nH]c(/C=C/c2cc(O)ccc2O)c([N+](=O)[O-])c(=O)[nH]1 [Compound 18] the listed Mode of inhibition is Uncompetitive

For record O=c1[nH]c(/C=C/c2ccccc2O)c([N+](=O)[O-])c(=O)[nH]1 [Compound 9] the listed Mode of inhibition is Uncompetitive

For record O=c1[nH]c(/C=C/c2cc([N+](=O)[O-])ccc2O)c([N+](=O)[O-])c(=O)[nH]1 [Compound 32] the listed Mode of inhibition is Uncompetitive

For record O=c1[nH]c(CCc2ccc(O)cc2)c([N+](=O)[O-])c(=O)[nH]1 [Compound 48] the listed Mode of inhibition is Uncompetitive

Continuing:
For record O=c1[nH]c(/C=C/c2ccc(F)cc2)c([N+](=O)[O-])c(=O)[nH]1 [Compound 29] the listed Mode of inhibition is Mixed

====

# Study Target: S. pombe Lumazine Synthase (Schizosaccharomyces pombe, UniProt Q9UUB1)
# Sequence (Q9UUB1 whole entry): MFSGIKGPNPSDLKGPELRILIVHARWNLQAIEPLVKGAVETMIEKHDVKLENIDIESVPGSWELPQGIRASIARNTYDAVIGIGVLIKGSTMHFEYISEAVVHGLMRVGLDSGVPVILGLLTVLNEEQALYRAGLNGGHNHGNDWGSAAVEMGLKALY
# Test Details: Lumazine synthase kinetic inhibition assay
# Type: biochemical
# Measurement Conditions: recombinant S. pombe LS
Readout: Mode of inhibition

For record O=C(O)c1ccc(/C=C/c2[nH]c(=O)[nH]c(=O)c2[N+](=O)[O-])c(O)c1 the listed Mode of inhibition is Mixed

For record COc1cccc(/C=C/c2[nH]c(=O)[nH]c(=O)c2[N+](=O)[O-])c1F the listed Mode of inhibition is Mixed

For record O=c1[nH]c(/C=C/C2C=Nc3ccccc32)c([N+](=O)[O-])c(=O)[nH]1 (stereo not shown) the listed Mode of inhibition is Mixed

====

# Study Target: S. pombe Lumazine Synthase (Schizosaccharomyces pombe, UniProt Q9UUB1)
# Test Details: Lumazine synthase kinetic inhibition assay
# Format: biochemical
# Measurement Conditions: recombinant S. pombe LS
Readout: Mode of inhibition

For record COc1ccccc1/C=C/c1[nH]c(=O)[nH]c(=O)c1[N+](=O)[O-] the listed Mode of inhibition is Mixed

For record COc1ccc([N+](=O)[O-])cc1/C=C/c1[nH]c(=O)[nH]c(=O)c1[N+](=O)[O-] the listed Mode of inhibition is Mixed
